These measurements were taken from the supplement of paper PMC8728848.

- TARGET ENTITY: Gal(b1-4)GlcNAc(b1-2)Man(a1-6)[GlcNAc(b1-2)Man(a1-3)]Man(b1-4)GlcNAc(b1-4)GlcNAc
- EXPERIMENT DESCRIPTION: glycan array binding signal (z-score within array); higher = stronger binding
- PROTOCOL CONDITIONS: glycan notation: IUPAC condensed, linker removed
Many of the other results were omitted from the sample, so the strongest signals are more common in it than they were.
QUANTITY: glycan array binding signal (z-score)
Please give the numeric answer without any surrounding text.

Worked cases, answers included:
Agalectin (Anopheles gambiae) (protein) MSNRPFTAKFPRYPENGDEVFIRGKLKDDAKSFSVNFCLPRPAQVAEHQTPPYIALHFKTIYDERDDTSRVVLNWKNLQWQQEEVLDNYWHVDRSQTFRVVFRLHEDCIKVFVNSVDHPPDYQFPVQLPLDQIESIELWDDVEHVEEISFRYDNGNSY    -0.688
Si Bti9 1b-V5-his (Solanum lycopersicum) (protein) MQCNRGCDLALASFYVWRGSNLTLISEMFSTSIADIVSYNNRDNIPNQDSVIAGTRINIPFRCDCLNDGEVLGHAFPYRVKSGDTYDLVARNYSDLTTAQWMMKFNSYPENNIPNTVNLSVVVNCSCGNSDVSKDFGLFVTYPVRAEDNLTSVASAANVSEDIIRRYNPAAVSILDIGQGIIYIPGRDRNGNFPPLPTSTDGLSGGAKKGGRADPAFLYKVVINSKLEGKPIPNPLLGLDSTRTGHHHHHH    -0.277
ABA (Agaricus bisporus), Q00022 (protein) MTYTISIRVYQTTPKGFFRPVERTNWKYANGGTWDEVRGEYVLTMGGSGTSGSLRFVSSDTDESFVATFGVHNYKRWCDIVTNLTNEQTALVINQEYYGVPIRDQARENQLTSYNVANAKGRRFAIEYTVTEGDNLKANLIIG    2.81
GNL (Galanthus nivalis) (protein) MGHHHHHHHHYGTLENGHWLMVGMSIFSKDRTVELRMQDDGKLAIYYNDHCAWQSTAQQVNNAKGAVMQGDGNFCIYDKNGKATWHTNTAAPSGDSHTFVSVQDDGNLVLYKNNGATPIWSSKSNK    7.59
AAL (Agrocybe aegerita), Q6WY08 (protein) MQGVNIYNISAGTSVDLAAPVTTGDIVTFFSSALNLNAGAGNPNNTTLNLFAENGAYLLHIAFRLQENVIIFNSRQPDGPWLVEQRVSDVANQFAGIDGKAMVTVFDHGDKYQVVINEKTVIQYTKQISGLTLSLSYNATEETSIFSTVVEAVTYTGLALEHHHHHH    -0.145

Next up:
Requested read-out: glycan array binding signal (z-score). Entry: UEA-I (Ulex europaeus), P22972 (protein) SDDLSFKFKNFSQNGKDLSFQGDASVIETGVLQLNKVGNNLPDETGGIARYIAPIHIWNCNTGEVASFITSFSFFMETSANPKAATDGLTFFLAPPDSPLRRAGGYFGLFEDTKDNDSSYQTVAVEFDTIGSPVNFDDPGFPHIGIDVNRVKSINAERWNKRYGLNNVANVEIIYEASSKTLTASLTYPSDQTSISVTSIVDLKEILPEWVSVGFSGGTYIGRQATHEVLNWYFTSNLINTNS
-0.155
